# Target Desc: full-length HPV E6 binding to human Caspase 8 (Human papillomavirus type 16, UniProt P03126)
# Construct: made in house; host or cells: E. coli
# Sequence (P03126 whole entry): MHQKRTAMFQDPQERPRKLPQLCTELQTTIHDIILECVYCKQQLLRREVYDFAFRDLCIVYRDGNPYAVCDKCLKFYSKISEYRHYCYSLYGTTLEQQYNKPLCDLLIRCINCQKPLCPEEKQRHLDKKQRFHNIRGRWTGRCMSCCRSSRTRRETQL
# Applied Conditions: 11 compounds that passed counter-screening; read-out: IC50 (μM) against E6-Caspase 8 binding
Measured Attribute: IC50 (µM)
Report the figure in µM without appending any unit label.

For the compound CC(C)=CCC[C@]1(C)C=Cc2c(O)c3c(c(CC=C(C)C)c2O1)O[C@]12C(=C[C@@H]4C[C@H]1C(C)(C)O[C@@]2(C/C=C(/C)C(=O)O)C4=O)C3=O , what IC50 is on record?
2

---

# Target Desc: full-length HPV E6 binding to human Caspase 8 (Human papillomavirus type 16, UniProt P03126)
# Construct: made in house; host or cells: E. coli
# Applied Conditions: head to head comparison gambogic acid vs myricetin; read-out: IC50 against E6-Caspase 8
Measured Attribute: IC50 (nM)
Numbers only here, please. The scale is nM.

Request the reported IC50 associated with CC(C)=CCC[C@]1(C)C=Cc2c(O)c3c(c(CC=C(C)C)c2O1)O[C@]12C(=C[C@@H]4C[C@H]1C(C)(C)O[C@@]2(C/C=C(/C)C(=O)O)C4=O)C3=O [gambogic acid]
1900
